target: acetylcholine receptor (Homo sapiens); test: SPR binding affinity (RU) of optimized 5mer/6mer/7mer peptides, Examples 6-7; settings: SPR, Resonance Units; peptides tested at 10 μM; 6mer-2 Bottom sequence
Below is a list of entries, each paired with its recorded Binding affinity value.
experimental_readout: Binding affinity (Ru)

# substance, study_target, assay_result
measured = [
    ("6mer-2-722 (RNEHRR)", "acetylcholine receptor (Homo sapiens)", 21),
    ("6mer-2-667 (KHDMRR)", "acetylcholine receptor (Homo sapiens)", 25),
    ("6mer-2-770 (KPNMKK)", "acetylcholine receptor (Homo sapiens)", 24),
    ("6mer-2-793 (RMHKKR)", "acetylcholine receptor (Homo sapiens)", 29),
    ("6mer-2-977 (REMKRK)", "acetylcholine receptor (Homo sapiens)", 30),
    ("6mer-2-823 (REDWRK)", "acetylcholine receptor (Homo sapiens)", 25),
    ("6mer-2-703 (RTMHKR)", "acetylcholine receptor (Homo sapiens)", 14),
    ("6mer-2-951 (RADEKK)", "acetylcholine receptor (Homo sapiens)", 42),
    ("6mer-2-753 (RYEHRR)", "acetylcholine receptor (Homo sapiens)", 18),
    ("6mer-2-908 (KYKKKR)", "acetylcholine receptor (Homo sapiens)", 33),
    ("6mer-2-988 (KMCEKK)", "acetylcholine receptor (Homo sapiens)", 41),
    ("6mer-2-980 (KESGKR)", "acetylcholine receptor (Homo sapiens)", 34),
    ("6mer-2-720 (RATNRK)", "acetylcholine receptor (Homo sapiens)", 29),
    ("6mer-2-842 (KPKMRR)", "acetylcholine receptor (Homo sapiens)", 22),
    ("6mer-2-709 (RIWPKR)", "acetylcholine receptor (Homo sapiens)", 31),
    ("6mer-2-900 (RFSAKK)", "acetylcholine receptor (Homo sapiens)", 11),
    ("6mer-2-930 (RTWIKR)", "acetylcholine receptor (Homo sapiens)", 37),
    ("6mer-2-943 (KIDHRR)", "acetylcholine receptor (Homo sapiens)", 41),
    ("6mer-2-898 (KKKDKK)", "acetylcholine receptor (Homo sapiens)", 16),
    ("6mer-2-759 (RFDEKK)", "acetylcholine receptor (Homo sapiens)", 18),
    ("6mer-2-859 (RMDFRK)", "acetylcholine receptor (Homo sapiens)", 21),
    ("6mer-2-762 (KFEERK)", "acetylcholine receptor (Homo sapiens)", 24),
    ("6mer-2-738 (KPWFKK)", "acetylcholine receptor (Homo sapiens)", 29),
    ("6mer-2-776 (RFPWRK)", "acetylcholine receptor (Homo sapiens)", 12),
    ("6mer-2-746 (RIKVRK)", "acetylcholine receptor (Homo sapiens)", 26),
    ("6mer-2-683 (KTEIRK)", "acetylcholine receptor (Homo sapiens)", 33),
    ("6mer-2-948 (RPPFRR)", "acetylcholine receptor (Homo sapiens)", 28),
    ("6mer-2-892 (KDENRK)", "acetylcholine receptor (Homo sapiens)", 27),
    ("6mer-2-777 (KNDVRR)", "acetylcholine receptor (Homo sapiens)", 31),
    ("6mer-2-843 (KAPDRK)", "acetylcholine receptor (Homo sapiens)", 33),
]

----------
target: acetylcholine receptor (Homo sapiens, UniProt P02708); experiment: SPR binding affinity (RU) of optimized 5mer/6mer/7mer peptides, Examples 6-7; conditions: SPR, Resonance Units; peptides tested at 10 μM; 6mer-2 Bottom sequence
Sequence (P02708 21-457): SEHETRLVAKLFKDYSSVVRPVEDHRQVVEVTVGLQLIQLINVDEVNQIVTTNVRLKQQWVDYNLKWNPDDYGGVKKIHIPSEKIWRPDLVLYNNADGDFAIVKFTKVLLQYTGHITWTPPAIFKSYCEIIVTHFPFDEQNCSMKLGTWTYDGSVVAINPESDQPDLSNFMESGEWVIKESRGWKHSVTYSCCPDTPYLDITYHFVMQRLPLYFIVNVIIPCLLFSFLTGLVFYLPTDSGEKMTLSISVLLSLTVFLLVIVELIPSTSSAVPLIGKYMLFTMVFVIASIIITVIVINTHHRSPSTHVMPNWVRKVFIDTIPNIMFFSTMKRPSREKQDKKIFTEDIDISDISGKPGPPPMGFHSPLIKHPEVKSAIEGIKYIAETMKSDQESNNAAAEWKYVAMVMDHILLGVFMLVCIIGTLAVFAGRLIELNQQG

# substance, Binding affinity / Ru
measured = [
    ("6mer-2-649 (KFDVRK)", 31),
    ("6mer-2-830 (RMKFKR)", 21),
    ("6mer-2-602 (RNTPKR)", 24),
]

Values were extracted from patent US20250011363A1.
